Origin of the recorded values: patent US9718790B2

Kindly supply the reported IC50 values for the records listed here.
target: human P2X3 receptor (Homo sapiens (Human), UniProt P56373); assay: Evaluation of human P2X3 receptor inhibitory activity (Fluo-3 calcium fluorescence, FDSS 3000, ATP stimulation); format: cell-based; conditions: C6BU-1 cells stably expressing human P2X3 receptor
Sequence (P56373 whole entry): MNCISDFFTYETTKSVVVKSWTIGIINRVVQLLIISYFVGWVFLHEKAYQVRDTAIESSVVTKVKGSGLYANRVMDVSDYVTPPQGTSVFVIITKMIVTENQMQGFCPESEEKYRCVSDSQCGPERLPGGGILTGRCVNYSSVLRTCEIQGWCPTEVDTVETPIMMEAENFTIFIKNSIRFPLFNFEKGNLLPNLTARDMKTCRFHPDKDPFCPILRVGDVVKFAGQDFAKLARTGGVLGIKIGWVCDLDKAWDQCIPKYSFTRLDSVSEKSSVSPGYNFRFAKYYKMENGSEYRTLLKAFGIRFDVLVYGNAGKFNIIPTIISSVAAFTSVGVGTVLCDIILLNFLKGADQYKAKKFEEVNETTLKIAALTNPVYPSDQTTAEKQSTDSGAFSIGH
Field format: number, assumed nM, no unit text.

Asked: Consider the compound CNC(=O)Cn1c(=O)[nH]/c(=N\c2ccc(Oc3ccnc(O)c3)cc2)n(Cc2ccc(Cl)cc2)c1=O [Compound I-1978] and give its recorded IC50.
Given back: 5

Asked: Answer with the recorded IC50 for the compound listed here: COC(=O)[C@@H](C)Cn1c(=O)[nH]/c(=N\c2ccc(Cc3ccncc3)cc2)n(Cc2ccc(C)cc2)c1=O [Compound I-1241]
Given back: 108

Asked: Output measured IC50 for this item: Cc1ccc(Cn2c(=O)n([C@@H](C)[C@@H](C)C(=O)O)c(=O)[nH]/c2=N\c2ccc3nc(C)sc3c2)cc1 [Compound I-1470]
Given back: 10

Asked: Return reported IC50. Input compound: Cc1ccc(Cn2c(=O)n([C@@H](C)[C@@H](C)C(=O)O)c(=O)[nH]/c2=N\c2ccc3nc(C)ccc3c2)cc1 [Compound I-1352]
Given back: 26

* * *

molecular target: human P2X3 receptor (Homo sapiens (Human), UniProt P56373); test: Evaluation of human P2X3 receptor inhibitory activity (Fluo-3 calcium fluorescence, FDSS 3000, ATP stimulation); format: cell-based; conditions: human P2X3 receptor, Test Example 1;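 also: stimulus was 50 nM ATP with fluorescence followed for 3 min, and the response per well was peak post-ATP fluorescence divided by the reading at measurement start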
OBSERVABLE: log10 of IC50 (log10 of the value in nM)
In plain terms, each number is the log10 of measured IC50 in nM.

Asked: Give me measured log10 of IC50, please, for this compound: `CCOc1ccc(/N=c2\[nH]c(=O)n(CCC(=O)O)c(=O)n2Cc2ccc(C)cc2)cc1Cl`
Given back: 2.00

Asked: State its log10 of IC50: `CCc1nc2ccc(/N=c3\[nH]c(=O)n(CCC(=O)O)c(=O)n3Cc3ccc(Cl)cc3)cc2s1`
Given back: 1.15

Asked: Identify measured log10 of IC50 corresponding to `CCn1c(=O)[nH]/c(=N\c2ccc(Oc3cnc(C(N)=O)cn3)cc2)n(Cc2ccc(Cl)cc2)c1=O`
Given back: 0.48

Asked: Return value of log10 of IC50 for input `CC(CO)(CO)Cn1c(=O)[nH]/c(=N\c2ccc(Oc3ccon3)cc2)n(Cc2ccc(Cl)cc2)c1=O` , no commentary.
Given back: 0.48

Asked: # return recorded log10 of IC50 for entry `CCOC(=O)CCn1c(=O)[nH]/c(=N\c2ccc3oc(CC)c(C)c3c2)n(Cc2ccc(C)cc2)c1=O`
Given back: 0.70

Asked: // Input: `CNC(=O)Cn1c(=O)[nH]/c(=N\c2ccc(Oc3ccon3)c(F)c2)n(Cc2ccc(Cl)cc2)c1=O` . Output its log10 of IC50 only.
Given back: 0.85

Asked: Output log10 of IC50 of `CCn1c(=O)[nH]/c(=N\c2ccc(Oc3ccc(C(=O)OC)nn3)cc2)n(C[C@H]2CC[C@H](C)CC2)c1=O`
Given back: 0.00

Asked: Entry `CCn1c(=O)[nH]/c(=N\c2ccc(Oc3ccc(C(=O)OC)cn3)cc2)n(C[C@H]2CC[C@H](C)CC2)c1=O` needs its log10 of IC50 filled in; supply it.
Given back: 2.55

Asked: Answer with the recorded log10 of IC50 of `CC[C@H](C)n1c(=O)[nH]/c(=N\c2ccc(Oc3ccnc(C(=O)O)c3)cc2)n(Cc2ccc(Cl)cc2)c1=O` only.
Given back: 0.78

Asked: Identify measured log10 of IC50 associated with `O=c1[nH]/c(=N\c2ccc(Oc3ccon3)c(F)c2)n(Cc2ccc(Cl)cc2)c(=O)n1CCO`
Given back: 0.85

Asked: Give the reported value of log10 of IC50 for this record: `CCn1c(=O)[nH]/c(=N\c2ccc(Oc3ccc(C(=O)O)nn3)cc2)n(Cc2ccc(Cl)cc2)c1=O`
Given back: 1.08

Asked: Provide log10 of IC50 value for the following compound: `Cc1ccc(Cn2c(=O)n(C)c(=O)[nH]/c2=N\c2ccc(Oc3cc(C#N)ccn3)cc2)cc1`
Given back: 1.11

Asked: Name the recorded log10 of IC50 of the compound listed here: `Cn1c(=O)[nH]/c(=N\c2ccc(Oc3cnc(C#N)cn3)cc2)n(Cc2ccc(Cl)cc2)c1=O`
Given back: 0.70

Asked: Answer with the recorded log10 of IC50 of `O=c1[nH]/c(=N\c2ccc(Oc3nccs3)cc2)n(Cc2ccc(Cl)cc2)c(=O)n1CCO` only.
Given back: 1.23

Asked: Output measured log10 of IC50 for this item: `COC(=O)c1cccc(Oc2ccc(/N=c3\[nH]c(=O)n(C)c(=O)n3Cc3ccc(Cl)cc3)cc2)n1`
Given back: 1.56

Asked: Output measured log10 of IC50 for this item: `CO/N=C/c1ccc(/N=c2\[nH]c(=O)n(C[C@H](C)C(=O)O)c(=O)n2Cc2ccc(Cl)cc2)cc1F`
Given back: 2.31

Asked: Kindly indicate its recorded log10 of IC50. Item: `CCn1c(=O)[nH]/c(=N\c2ccc(Oc3cc(C(=O)OC)sn3)cc2)n(Cc2ccc(Cl)cc2)c1=O`
Given back: 0.48

Asked: Fill in log10 of IC50 for record `CCn1c(=O)[nH]/c(=N\c2ccc(Oc3ccnc(C(=O)O)c3)cc2)n(Cc2ccc(F)cc2)c1=O`
Given back: 1.04

Asked: Give the measured log10 of IC50 for `CCn1c(=O)[nH]/c(=N\c2ccc(Oc3ccnc(C(N)=O)c3)cc2)n(Cc2ccc(F)cc2)c1=O`
Given back: 1.18

Asked: Note log10 of IC50 for the compound shown: `CCn1c(=O)[nH]/c(=N\c2ccc(Oc3cc(C(=O)O)sn3)cc2)n(Cc2ccc(Cl)cc2)c1=O`
Given back: 0.78

Asked: Assign log10 of IC50 to the following record: `COC(=O)CCn1c(=O)[nH]/c(=N\c2ccc(Oc3cccc(F)n3)cc2)n(Cc2ccc(Cl)cc2)c1=O`
Given back: 0.48

Asked: For the compound `COC(=O)[C@@H](C)Cn1c(=O)[nH]/c(=N\c2ccc(CC(C)(C)F)c(Cl)c2)n(Cc2ccc(C)cc2)c1=O` , report log10 of IC50.
Given back: 1.51

Asked: Respond only with log10 of IC50 recorded for `CCn1c(=O)[nH]/c(=N\c2ccc(Oc3nc(C)c(C(=O)O)s3)cc2)n(C[C@H]2CC[C@H](C)CC2)c1=O`
Given back: 0.60

Asked: Supply log10 of IC50 value. Item: `CCn1c(=O)[nH]/c(=N\c2ccc(Oc3cccc(C#N)n3)cc2)n(Cc2ccc(F)cc2)c1=O`
Given back: 1.20

Asked: Please look at this compound and report its log10 of IC50: `O=C(O)Cn1c(=O)[nH]/c(=N\c2ccc(Oc3cnsn3)cc2)n(Cc2ccc(Cl)cc2)c1=O`
Given back: 2.69

Asked: Report log10 of IC50 for `O=C(O)CCn1c(=O)[nH]/c(=N\c2ccc(Oc3ncns3)cc2)n(Cc2ccc(Cl)cc2)c1=O`
Given back: 1.40

Asked: Tell me measured log10 of IC50 for `CCn1c(=O)[nH]/c(=N\c2ccc(Oc3ccnc(C#N)c3)cc2)n(Cc2ccc(Cl)cn2)c1=O` please.
Given back: 1.51

* * *

biological target: human P2X3 receptor (Homo sapiens (Human)); experiment: Evaluation of human P2X3 receptor inhibitory activity (Fluo-3 calcium fluorescence, FDSS 3000, ATP stimulation); assay type: cell-based; settings: human P2X3 receptor, Test Example 1
OBSERVABLE: pIC50
Please express pIC50 as -log10 of the molar concentration.

Asked: Output pIC50 of C[C@H](Cn1c(=O)[nH]/c(=N\c2ccc(N3CCCCC3)cc2)n(Cc2ccc(Cl)cc2)c1=O)C(=O)O [Compound I-1486]
Given back: 7.37

Asked: Return pIC50 (reported value) for this compound: CCn1c(=O)[nH]/c(=N\c2ccc3nc(OCC(=O)OC)sc3c2)n(Cc2ccc(Cl)cc2)c1=O [Compound I-2324]
Given back: 6.94

Asked: Complete the entry with pIC50 for C=COc1ccc(N(C)c2nc(=O)n(C[C@H](C)C(=O)OC)c(=O)n2Cc2ccc(C)cc2)cc1Cl [Compound I-1550]
Given back: 6.08

Asked: State, in one line, measured pIC50 of CCn1c(=O)[nH]/c(=N\c2ccc(Oc3ccc(C(N)=O)cc3)nc2)n(Cc2ccc(Cl)cc2)c1=O [Compound I-2620]
Given back: 6.96

Asked: Given Cc1sc(Oc2ccc(/N=c3\[nH]c(=O)n(C)c(=O)n3Cc3ccc(Cl)cc3)cc2)nc1C(=O)O [Compound I-2451] , respond with its pIC50.
Given back: 7.60

Asked: Answer with the recorded pIC50 of CCn1c(=O)[nH]/c(=N\c2ccc(Oc3ccc(C(=O)O)nn3)cc2)n(Cc2ccc(C)cc2)c1=O [Compound I-2383] only.
Given back: 7.82

Asked: Respond only with pIC50 recorded for COCCn1c(=O)[nH]/c(=N\c2ccc(Oc3cccc(C(=O)O)n3)cc2)n(Cc2ccc(Cl)cc2)c1=O [Compound I-2548]
Given back: 8.22
